targetDesc: T1, TSHR coated onto tubes (human, UniProt P16473 21-764, limits assumed)
T1 construct: whole entry named; also called TSHR coated tubes; thyrotropin receptor
assayExplanation: TSHR coated tubes, competitor 125I-TSH
endpointLabel: % inhib of 125I-TSH binding at 100 µg/mL (%)
One number for each entry, in %.

Return reported % inhib of 125I-TSH binding at 100 µg/mL; argument: 17D2 IgG (antibody, V domains shown) VH: DVQIQQSGPELVKPGASVKMSCKASGYSFTAYNMHWVKQTHGKSLEWIGYIDPYSGATSYHQKFKGKATLTVDKSSSTAYMRLNSLTSEDSAVYYCARRWDWDPYAMDYWGQGTSVTVSS VL: SVEMSQSPAILSVSPGERISFSCRASQSIGTSIHWYQQRTNGSPRLLIKYASASISGIPSRFSGSGSGTDFTLSINSVESEDIADYYCQQSNSWPLTFGAGTKLELKR 56
